Origin of measurements: paper PMC5700166

measuredTarget: GST-Ap-NF-kB RHD (Exaiptasia pallida (Aiptasia), UniProt A0A913YAJ5 2-422)
Sequence: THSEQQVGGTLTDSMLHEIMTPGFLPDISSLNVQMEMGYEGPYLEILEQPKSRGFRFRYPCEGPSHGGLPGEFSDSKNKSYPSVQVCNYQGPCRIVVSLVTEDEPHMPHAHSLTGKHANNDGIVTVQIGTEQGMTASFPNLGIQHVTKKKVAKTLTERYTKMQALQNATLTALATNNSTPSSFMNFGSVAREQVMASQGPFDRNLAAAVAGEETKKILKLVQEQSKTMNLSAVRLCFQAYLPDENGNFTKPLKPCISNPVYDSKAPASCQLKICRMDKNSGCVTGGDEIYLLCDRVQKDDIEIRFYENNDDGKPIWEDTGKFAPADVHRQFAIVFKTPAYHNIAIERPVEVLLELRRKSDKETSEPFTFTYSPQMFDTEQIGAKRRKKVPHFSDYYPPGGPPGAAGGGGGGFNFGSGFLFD
assayName: protein-binding microarray (PBM); PBM: ~300 nM protein, 6 mM HEPES pH 7.8, 80 mM KCl, 0.5 mM EDTA, 0.5 mM EGTA, 6% glycerol, 35 ng/ul poly-dIdC, 1% milk, 1 h, room temperature; high values mean tight binding
testContext: dsDNA, one strand shown
Rule for this label: condition met means binding signal is less than 6 z-score; condition not met means binding signal is at least 6 z-score.

>>> df
                             sequencerecord         grouplabel
0  CCGATTAACATCAGGATATACCCTGATGTTAATCGGGTCTTGATTCGCTTGACGCTGCTG      condition met
1  CCGATTAACATCAGGGCTCCCCCTGATGTTAATCGGGTCTTGATTCGCTTGACGCTGCTG  condition not met
2  CCGATTAACATCACTAATCCCCCTGATGTTAATCGGGTCTTGATTCGCTTGACGCTGCTG  condition not met
3  CCGATTAACATCAGACATTCCCCTGATGTTAATCGGGTCTTGATTCGCTTGACGCTGCTG  condition not met
4  CCGATTAACATCAGAAGATTCCCTGATGTTAATCGGGTCTTGATTCGCTTGACGCTGCTG      condition met

Then there is this sequence:
Task: Is binding signal strictly under 6 z-score for the entry "CCGATTAACATCAAAAGCCCCCATGATGTTAATCGGGTCTTGATTCGCTTGACGCTGCTG" ?
Result: condition met

###

// values below are reported binding signal
measuredTarget: GST-Aq-NF-kB (Amphimedon queenslandica, UniProt A9Y5G7 2-389)
Sequence: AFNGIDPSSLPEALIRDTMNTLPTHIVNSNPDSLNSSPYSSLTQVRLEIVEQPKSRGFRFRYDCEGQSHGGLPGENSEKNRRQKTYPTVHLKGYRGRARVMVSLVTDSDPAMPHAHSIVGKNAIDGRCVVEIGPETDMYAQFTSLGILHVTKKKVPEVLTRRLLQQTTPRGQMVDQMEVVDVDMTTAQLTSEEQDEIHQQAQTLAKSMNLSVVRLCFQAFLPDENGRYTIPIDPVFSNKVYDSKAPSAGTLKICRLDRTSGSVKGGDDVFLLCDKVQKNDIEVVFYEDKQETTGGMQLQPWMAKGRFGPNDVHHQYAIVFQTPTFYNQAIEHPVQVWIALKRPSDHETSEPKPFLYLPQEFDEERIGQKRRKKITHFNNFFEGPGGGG
assayName: protein-binding microarray (PBM); PBM: ~300 nM protein, 6 mM HEPES pH 7.8, 80 mM KCl, 0.5 mM EDTA, 0.5 mM EGTA, 6% glycerol, 35 ng/ul poly-dIdC, 1% milk, 1 h, room temperature; Ap Aiptasia and Nv Nematostella (sea anemones) / Co Capsaspora / Aq Amphimedon (sponge) / Dm Drosophila / Hu human; RHD is the Rel homology domain; high values mean tight binding
testContext: dsDNA, one strand shown
# answer = value followed by unit

                             sequencerecord         value
0  CCGATTAACATCACGGGGGGGGATGATGTTAATCGGGTCTTGATTCGCTTGACGCTGCTG  5.29 z-score
1  CCGATTAACATCAATATTCCCCATGATGTTAATCGGGTCTTGATTCGCTTGACGCTGCTG  5.97 z-score
2  CCGATTAACATCAGGAGAGTACCTGATGTTAATCGGGTCTTGATTCGCTTGACGCTGCTG  3.47 z-score
3  CCGATTAACATCACGGGGGGTAATGATGTTAATCGGGTCTTGATTCGCTTGACGCTGCTG  3.77 z-score
4  CCGATTAACATCAGGAACGCCCCTGATGTTAATCGGGTCTTGATTCGCTTGACGCTGCTG  5.42 z-score
5  CCGATTAACATCACCCAGTTCCCTGATGTTAATCGGGTCTTGATTCGCTTGACGCTGCTG   1.7 z-score

Task: Which measured binding signal value corresponds to "CCGATTAACATCAGGGGGTACACTGATGTTAATCGGGTCTTGATTCGCTTGACGCTGCTG" ?
Result: 3.31 z-score

Task: Which measured binding signal value corresponds to "CCGATTAACATCAATGGGAATTCTGATGTTAATCGGGTCTTGATTCGCTTGACGCTGCTG" ?
Result: 3.51 z-score
